Attribution: paper PMC8715118

- study-target: (α4)3(β2)2 nAChR (Homo sapiens, UniProt P17787+P43681)
- Construct: expressed in transfected cells; host or cells: Xenopus laevis oocytes injected with cRNA, 8:1 α4:β2
- Sequence (P43681 27-627): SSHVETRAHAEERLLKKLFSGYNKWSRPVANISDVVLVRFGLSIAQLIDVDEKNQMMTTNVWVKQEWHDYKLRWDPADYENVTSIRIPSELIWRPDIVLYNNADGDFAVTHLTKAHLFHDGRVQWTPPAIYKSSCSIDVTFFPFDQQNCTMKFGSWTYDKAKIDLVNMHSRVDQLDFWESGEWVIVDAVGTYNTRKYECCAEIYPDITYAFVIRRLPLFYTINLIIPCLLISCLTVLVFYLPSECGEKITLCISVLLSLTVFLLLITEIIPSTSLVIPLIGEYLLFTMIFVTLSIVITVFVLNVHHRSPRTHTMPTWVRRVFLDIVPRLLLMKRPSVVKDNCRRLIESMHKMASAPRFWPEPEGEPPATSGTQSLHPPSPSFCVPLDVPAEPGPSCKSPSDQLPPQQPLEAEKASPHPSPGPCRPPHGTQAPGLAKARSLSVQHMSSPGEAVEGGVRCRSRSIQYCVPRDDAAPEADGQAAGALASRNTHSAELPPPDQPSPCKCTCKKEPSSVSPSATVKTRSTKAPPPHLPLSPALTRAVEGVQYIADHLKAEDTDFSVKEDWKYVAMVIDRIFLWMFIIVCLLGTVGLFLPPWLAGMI
- Sequence (P17787 26-502): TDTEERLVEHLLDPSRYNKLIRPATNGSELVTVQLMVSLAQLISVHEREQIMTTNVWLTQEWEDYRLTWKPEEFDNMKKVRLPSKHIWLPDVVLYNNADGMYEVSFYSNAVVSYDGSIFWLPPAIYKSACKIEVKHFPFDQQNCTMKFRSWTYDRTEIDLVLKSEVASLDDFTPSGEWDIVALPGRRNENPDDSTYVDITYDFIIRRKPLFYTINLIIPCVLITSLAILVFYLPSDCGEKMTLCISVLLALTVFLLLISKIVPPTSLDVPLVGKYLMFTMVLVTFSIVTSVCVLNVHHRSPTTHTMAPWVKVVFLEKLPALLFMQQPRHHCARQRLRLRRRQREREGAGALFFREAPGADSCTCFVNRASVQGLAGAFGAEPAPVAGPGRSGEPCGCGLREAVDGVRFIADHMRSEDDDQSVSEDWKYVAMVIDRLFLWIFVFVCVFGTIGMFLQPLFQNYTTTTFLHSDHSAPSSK
- test-name: Mechanistic (Monod-Wyman-Changeux two-state model) analysis of current responses, WT (α4)3(β2)2 nAChR
- Type: cell-based
- test-parameters: five approaches; read-out: KR,CMPI,α4:α4, range of estimates
pKd: −log10 of the molar value.
observable: pKd

[in] Requested read-out: pKd. Entry: Cc1c(-c2cc(-c3ccccc3Cl)no2)cnn1C1CCNCC1
[out] 6.37 to 7.05

###

- study-target: (α4)3(β2)2 nAChR (Homo sapiens, UniProt P17787+P43681)
- Construct: expressed in transfected cells; host or cells: Xenopus laevis oocytes injected with cRNA, 8:1 α4:β2
- test-name: Mechanistic (Monod-Wyman-Changeux two-state model) analysis of current responses, WT (α4)3(β2)2 nAChR
- Type: cell-based
- test-parameters: read-out: KR, equilibrium dissociation constant in the resting receptor; α4:β2 site; WT
observable: pKd
Convention used: pKd is expressed as -log10 of the molar concentration.

[in] Requested read-out: pKd. Entry: O=c1cccc2n1C[C@@H]1CNC[C@H]2C1 [cytisine]
[out] 6.20

###

- study-target: (α4)3(β2)2 nAChR (Homo sapiens, UniProt P17787+P43681)
- Construct: expressed in transfected cells; host or cells: Xenopus laevis oocytes injected with cRNA, 8:1 α4:β2
- test-name: Mechanistic (Monod-Wyman-Changeux two-state model) analysis of current responses, WT (α4)3(β2)2 nAChR
- Assay type: cell-based
- test-parameters: background of 10 μM TC-2559; read-out: KR,CMPI,α4:α4
observable: pKd
Convention used: pKd is expressed as -log10 of the molar concentration.

[in] Requested read-out: pKd. Entry: Cc1c(-c2cc(-c3ccccc3Cl)no2)cnn1C1CCNCC1 [CMPI]
[out] 7.05

###

- study-target: (α4)3(β2)2 nAChR (Homo sapiens, UniProt P17787+P43681)
- Construct: expressed in transfected cells; host or cells: Xenopus laevis oocytes injected with cRNA, 8:1 α4:β2
- test-name: Mechanistic (Monod-Wyman-Changeux two-state model) analysis of current responses, WT (α4)3(β2)2 nAChR
- Type: cell-based
- test-parameters: background of 1 μM nicotine; read-out: KR,CMPI,α4:α4
- Procedure: To gain mechanistic insight into receptor activation in the presence of CMPI, we analyzed the currents in the framework of a cyclic two-state (resting and active) allosteric activation model ([31], [32], [33]). […] The concentration-response data were analyzed using Equation 3, with the value of L modified to reflect receptor activation by TC-2559, and the affinity and efficacy terms in the equation reflecting the values for CMPI. […]
observable: Kd (nM)
// units = nM; emit number, no label

[in] Query for (α4)3(β2)2 nAChR (Homo sapiens, UniProt P17787+P43681): what Kd does the record show for Cc1c(-c2cc(-c3ccccc3Cl)no2)cnn1C1CCNCC1 [CMPI] ?
[out] 400

###

- study-target: (α4H116A)3(β2)2 nAChR (Homo sapiens, UniProt P17787+P43681, H142A)
- Construct: expressed in transfected cells; host or cells: Xenopus laevis oocytes injected with cRNA, 8:1 α4:β2
- Sequence (P43681 27-627 H142A): as the sequence (P43681 27-627) above, with H116A counted along it
- Sequence (P17787 26-502): as the sequence (P17787 26-502) above
- test-name: Mechanistic (Monod-Wyman-Changeux two-state model) analysis of current responses, (α4H116A)3(β2)2 nAChR
- Assay type: cell-based
- test-parameters: α4:α4 site; α4H116A mutant; read-out: KR, equilibrium dissociation constant in the resting receptor
- Procedure: Further analysis of electrophysiological data was conducted in the framework of the two-state concerted transition model, adapted from the MWC cyclic model originally used to describe enzyme function ([31], [32], [33]). […] The concentration-response data were analyzed using Equation 3, with the value of L modified to reflect receptor activation by TC-2559, and the affinity and efficacy terms in the equation reflecting the values for CMPI. […]
observable: Kd (µM)
// units = µM; emit number, no label

[in] Requested read-out: Kd. Entry: CCOc1cncc(/C=C/CCNC)c1
[out] 70
